- System: BT-549
- Test: NCI tumour cell line growth inhibition, 48 h
Active and inactive are the calls of the source. Cut-off read from the data, not from the text of the source: active = GI50 up to about 1.1 µM and inactive = higher.
Measured Metric: GI50

Use the examples below as a reference point.
Molecule	Observed Result
C=CCN1C(=O)/C(=C/c2ccc(OC)cc2)N=C1SC/C=C/C	39.7 µM (inactive)
CN(C)c1ccc(/C=C(\NC(=O)c2ccccc2)C2NC(Cc3c[nH]c4ccccc34)C(=O)O2)cc1 (stereo not given)	12.1 µM (inactive)
CC[C@@]1(CCC(=O)NCCc2c[nH]c3ccccc23)CCC(=O)N2CCc3c([nH]c4ccccc34)[C@H]21	4.31 µM (inactive)
COc1ccccc1NCc1cccc2c(=O)c3ccc(Cl)cc3oc12	> 100 µM (inactive)

Task item: Look up GI50 of Nc1cc2ncnc(Nc3cccc(Br)c3)c2cn1 and report it.
Reply: > 100 µM (inactive)
